// data source = patent US20240246954A1

compounds and their reported pIC50
# TEST_SYSTEM: Avi-KRAS G12D/Q25A (1-169) GppNHp/3×FLAG-PI3KCA (157-299) (Homo sapiens, UniProt P01116, G12D/Q25A)
# Construct: Avi-KRAS G12D/Q25A (1-169) GppNHp
# Sequence (P01116 1-169 isoform P01116-2 G12D/Q25A limits assumed): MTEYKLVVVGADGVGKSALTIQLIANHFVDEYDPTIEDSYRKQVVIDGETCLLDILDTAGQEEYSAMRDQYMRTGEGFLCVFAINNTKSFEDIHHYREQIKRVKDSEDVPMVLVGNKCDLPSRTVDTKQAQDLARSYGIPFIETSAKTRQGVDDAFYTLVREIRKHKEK
# ASSAY_NAME: HTRF PI3KCA-KRAS G12D/Q25A-GppNHp disruption assay
# SETUP_CONDITIONS: 1 h incubation
pIC50: −log10 of the molar value.

Below, each entry is followed by its recorded pIC50 result.
Q) # pIC50 lookup, item Oc1cc(-c2c(Cl)cc3c(N4CC5CCC(C4)N5)nc(OCC45CCCN4CCC5)nc3c2F)c2ccccc2c1 [Compound 161]
A) 5.00 to 6.00

Q) And for CN(c1nc(OCC23CCCN2CCC3)nc2c(F)c(-c3ccc(F)c4sc(N)nc34)c(C(F)(F)F)cc12)[C@H]1CC[C@@H](N)CC1 (atropisomer, axis not shown) [Compound 294] ?
A) 5.00 to 6.00

Q) And for N#Cc1c(N)cccc1-c1c(C(F)(F)F)cc2c(N3CC4CCC(C3)N4)nc(OCC34CCCN3CCC4)nc2c1F [Compound 342] ?
A) 4.52 to 5.00

Q) And for CN1CCC[C@H]1COc1nc(N2CCN[C@@H](CC#N)C2)c2cc(Cl)c(-c3ccc(F)c4sc(N)nc34)c(F)c2n1 [Compound 56] ?
A) 4.52 to 5.00

Q) And for Nc1nc2c(-c3c(C(F)F)cc4c(N5CCNCC5)nc(OCC56CCCN5CCC6)nc4c3F)ccc(F)c2s1 [Compound 227] ?
A) 5.00 to 6.00

***
Q) # pIC50 lookup, item CCN(c1nc(OC[C@@H]2CCCN2C)nc2c(F)c(-c3ccc(F)c4sc(N)nc34)c(C(F)(F)F)cc12)C1CNC1 [Compound 170]
A) 4.52 to 5.00

Q) And for CN1CCC[C@H]1COc1nc(NCCN)c2cc(Cl)c(-c3ccc(F)c4nc(N)sc34)c(F)c2n1 [Compound 107] ?
A) 4.52 to 5.00

====

compounds and their reported IC50
# TEST_SYSTEM: Avi-KRAS G12D (1-169) GppNHp/RAF1 RBD-3×FLAG (52-151) (Homo sapiens, UniProt P01116, G12D)
# Construct: Avi-KRAS G12D (1-169) GppNHp
# Sequence (P01116 1-169 isoform P01116-2 G12D limits assumed): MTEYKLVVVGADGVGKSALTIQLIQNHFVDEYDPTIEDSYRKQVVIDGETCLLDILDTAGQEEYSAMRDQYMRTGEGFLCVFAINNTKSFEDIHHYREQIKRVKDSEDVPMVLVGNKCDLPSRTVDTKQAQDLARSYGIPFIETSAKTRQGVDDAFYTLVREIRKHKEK
# ASSAY_NAME: HTRF Raf1-KRAS G12D-GppNHp disruption assay
# Assay type: biochemical
# SETUP_CONDITIONS: 1 h incubation

Q) # IC50 lookup, item NC(=O)N1CCN(c2nc(OCC34CCCN3CCC4)nc3c(F)c(-c4ccc(F)c5sc(N)nc45)c(-c4ccoc4)cc23)CC1 [Compound 186]
A) 10 to 30 µM

Q) And for CN(c1nc(OCC23CCCN2CCC3)nc2c(F)c(-c3ccc(F)c4sc(N)nc34)c(C(F)(F)F)cc12)C12CC(N)(C1)C2 [Compound 274] ?
A) 0.1 to 1 µM

***
Q) # IC50 lookup, item Nc1nc2c(-c3c(C(F)(F)F)cc4c(N[C@@H]5CCNC5)nc(OC[C@@]56CCCN5C[C@H](F)C6)nc4c3F)ccc(F)c2s1 (atropisomer, axis not shown) [Compound 249]
A) 1 to 10 µM
